assay: log P by HPLC on reversed-phase columns (EEC Directive 79/831 Annex V.A8); type: physicochemical; settings: pH 2.7, log P
ENDPOINT LABEL: chromatographic logP
Returns: the value as a bare number; no unit string appended.

• Cc1cc(Cl)cc(C(=O)NCc2ccccc2)c1NC(=O)c1cc(Cn2nnc(C(F)(F)F)n2)nn1-c1ncccc1Cl [Example 81] = 3.77

Would you mind telling me what chromatographic logP value was observed for Cc1cc(Cl)cc(C(=O)NC(C)c2ccc(Cl)cc2)c1NC(=O)c1cc(Cn2nnc(C(F)(F)F)n2)nn1-c1ncccc1Cl (stereo not shown) [Example 111] ? 4.3

Request the reported chromatographic logP associated with Cc1cc(C#N)cc(C(=O)NCc2ccccc2)c1NC(=O)c1cc(Cn2nnc(C(F)(F)F)n2)nn1-c1ncccc1Cl [Example 70] 3.38

Given the compound Cc1ccc(Cl)c(C(=O)NCc2cccc(Cl)c2)c1NC(=O)c1cc(Cn2nnc(C(F)(F)F)n2)nn1-c1ncccc1Cl [Example 197] , what is its reported chromatographic logP? 3.74
